assayed system: human SCD1 (Homo sapiens, UniProt O00767)
Construct: expressed in transfected cells; host or cells: yeast strain with OLE1 deleted, plasmid-borne human SCD1 (selected in SD-Ura)
Sequence (O00767 whole entry): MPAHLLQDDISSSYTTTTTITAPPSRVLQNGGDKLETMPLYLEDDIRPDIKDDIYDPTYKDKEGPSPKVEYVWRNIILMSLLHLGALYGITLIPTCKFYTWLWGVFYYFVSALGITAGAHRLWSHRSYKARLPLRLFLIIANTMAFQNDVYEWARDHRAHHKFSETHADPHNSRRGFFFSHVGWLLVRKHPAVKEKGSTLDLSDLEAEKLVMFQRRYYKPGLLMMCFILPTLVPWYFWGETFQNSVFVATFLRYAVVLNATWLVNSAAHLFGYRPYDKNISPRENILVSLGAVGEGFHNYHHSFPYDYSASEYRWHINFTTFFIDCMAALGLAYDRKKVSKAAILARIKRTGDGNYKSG
assay overview: Growth inhibition of yeast strain expressing human SCD1 as sole desaturase (OLE1 deleted), OD600 readout
Assay type: cell-based
study conditions: yeast strain expressing human SCD1 as sole desaturase; growth (OD600) after 40 h at 30° C.; read-out: SCD1 IC50
reported metric: pIC50
Scale: negative log10 of molar concentration, which is what pIC50 denotes.

Problem: Fill blank: measured pIC50 of the compound Cn1cc(C(=O)Nc2ccc(Cc3cncc(F)c3)cn2)ccc1=O [Compound 453] is ____.
Result: 6.74

Problem: Fill blank: measured pIC50 of the compound O=C(Nc1ccc(Cc2cccc(F)c2)cn1)c1cnc2nsnc2c1 [Compound 358] is ____.
Result: 5.22

Problem: Fill blank: measured pIC50 of the compound COc1cccc(Cc2ccc(NC(=O)c3ccc(=O)n(C)n3)nc2)c1 [Example 44] is ____.
Result: 4.85

Problem: Fill blank: measured pIC50 of the compound CC(O)c1ccc(C(=O)Nc2ccc(Cc3cccc(Cl)c3)cn2)nc1 (stereo not drawn) [Compound 510] is ____.
Result: 7.00

----------
Assign pIC50 to each entry below.
assayed system: human SCD5 (Homo sapiens, UniProt Q86SK9)
Construct: expressed in transfected cells; host or cells: yeast strain with OLE1 deleted, plasmid-borne human SCD5 (selected in SD-Ura)
Sequence (Q86SK9 whole entry): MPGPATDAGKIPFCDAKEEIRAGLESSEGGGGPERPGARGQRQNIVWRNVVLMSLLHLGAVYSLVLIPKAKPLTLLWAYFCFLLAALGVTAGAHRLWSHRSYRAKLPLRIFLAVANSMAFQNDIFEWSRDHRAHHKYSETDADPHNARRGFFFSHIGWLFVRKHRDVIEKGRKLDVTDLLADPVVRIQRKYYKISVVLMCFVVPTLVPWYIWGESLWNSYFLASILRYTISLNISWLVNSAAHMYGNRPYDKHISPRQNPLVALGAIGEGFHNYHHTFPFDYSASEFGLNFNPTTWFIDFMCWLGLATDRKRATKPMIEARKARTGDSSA
assay overview: Growth inhibition of yeast strain expressing human SCD5 as sole desaturase (OLE1 deleted), OD600 readout
Assay type: cell-based
study conditions: yeast strain expressing human SCD5 as sole desaturase; growth (OD600) after 40 h at 30° C.; read-out: SCD5 IC50
Scale: negative log10 of molar concentration, which is what pIC50 denotes.

Problem: Fill blank: measured pIC50 of the molecule Cn1cc(NC(=O)c2ccc(COc3cccc(Cl)c3)cn2)ccc1=O is ____.
Result: 6.51

Problem: Fill blank: measured pIC50 of the molecule O=C(Nc1ccc(Cc2cccc(Cl)c2)cn1)c1ccc([C@@H](O)CO)nc1 is ____.
Result: 6.49

Problem: Fill blank: measured pIC50 of the molecule N#Cc1cc(F)cc(Cc2ccc(NC(=O)c3cncc(CO)c3)nc2)c1 is ____.
Result: 7.52

----------
assayed system: human SCD5 (Homo sapiens)
Construct: expressed in transfected cells; host or cells: yeast strain with OLE1 deleted, plasmid-borne human SCD5 (selected in SD-Ura)
assay overview: Growth inhibition of yeast strain expressing human SCD5 as sole desaturase (OLE1 deleted), OD600 readout
Assay type: cell-based
study conditions: yeast strain expressing human SCD5 as sole desaturase; growth (OD600) after 40 h at 30° C.; read-out: SCD5 IC50
pIC50: −log10 of the molar value.
Decision: pIC50 >= 7 yields class 1, all other cases yield class 0.

Problem: Exam item: decide whether the reported pIC50 for O=C(Nc1ccc(Cc2ccc(F)c(F)c2)cn1)c1ncc(Br)cn1 is at least 7.
Result: class 0

Problem: Exam item: decide whether the reported pIC50 for Cn1nc(NC(=O)c2ccc(Cc3cccc(F)c3)cn2)ccc1=O is at least 7.
Result: class 1

Problem: Exam item: decide whether the reported pIC50 for CN1N=C(C(=O)Nc2ncc(COc3cccc(Cl)c3)s2)CCC1=O is at least 7.
Result: class 0

Problem: Exam item: decide whether the reported pIC50 for CN1N=C(C(=O)Nc2ccc(Cc3cc(Cl)ccc3F)nn2)CCC1=O is at least 7.
Result: class 0

Problem: Exam item: decide whether the reported pIC50 for CCn1cc(C(=O)Nc2ccc(Cc3cccc(Cl)c3)nn2)ccc1=O is at least 7.
Result: class 0

Problem: Exam item: decide whether the reported pIC50 for CO[C@@H]1CN[C@H](C(=O)Nc2ccc(Cc3cccc(F)c3)cn2)C1 is at least 7.
Result: class 0

Problem: Exam item: decide whether the reported pIC50 for Cn1nc(C(=O)Nc2ccc(COc3ccc(Cl)c(F)c3)cn2)ccc1=O is at least 7.
Result: class 0

Problem: Exam item: decide whether the reported pIC50 for CN1N=C(C(=O)Nc2ncc(Cc3ccc(F)cc3F)s2)CCC1=O is at least 7.
Result: class 0

Problem: Exam item: decide whether the reported pIC50 for CN1N=C(C(=O)Nc2ccc(Cc3cccc(C(F)(F)F)c3)cn2)CCC1=O is at least 7.
Result: class 0

Problem: Exam item: decide whether the reported pIC50 for CN1N=C(C(=O)Nc2ncc(Cc3ccc4ccccc4n3)s2)CCC1=O is at least 7.
Result: class 0

Problem: Exam item: decide whether the reported pIC50 for CN1N=C(C(=O)Nc2ccc(Cc3cc(F)cc(Cl)c3)cn2)CCC1=O is at least 7.
Result: class 1

Problem: Exam item: decide whether the reported pIC50 for Cn1nc(NC(=O)c2ccc(Cc3ccc(F)cc3)cn2)ccc1=O is at least 7.
Result: class 1

Problem: Exam item: decide whether the reported pIC50 for O=C(Nc1ccc(Cc2cccc(Cl)c2)cn1)c1cc2ncncc2s1 is at least 7.
Result: class 1

Problem: Exam item: decide whether the reported pIC50 for CC(O)c1ccc(C(=O)Nc2ccc(Cc3ccc(F)c(F)c3)cn2)nn1 (stereo not drawn) is at least 7.
Result: class 0

Problem: Exam item: decide whether the reported pIC50 for O=C(Nc1ccc(Cc2cccc(F)c2)nn1)c1ccc(=O)n(CC2CC2)n1 is at least 7.
Result: class 0

Problem: Exam item: decide whether the reported pIC50 for CN1CC=C(C(=O)Nc2ccc(Cc3cccc(F)c3)cn2)NC1=O is at least 7.
Result: class 0

Problem: Exam item: decide whether the reported pIC50 for Cn1cc(C(=O)Nc2ccc(Cc3cncc(Cl)c3)cn2)ccc1=O is at least 7.
Result: class 0

Problem: Exam item: decide whether the reported pIC50 for O=C(Nc1ccc(Cc2ccc(F)c(Cl)c2)cn1)c1ccc2nncn2c1 is at least 7.
Result: class 1

Problem: Exam item: decide whether the reported pIC50 for O=C(Nc1ccc(Cc2ccc(F)c(F)c2)cn1)c1cncc(CO)c1 is at least 7.
Result: class 1

Problem: Exam item: decide whether the reported pIC50 for Cc1cc(C(=O)Nc2ccc(Cc3cccc(F)c3)cn2)cn(C)c1=O is at least 7.
Result: class 1

Problem: Exam item: decide whether the reported pIC50 for CN1N=C(C(=O)Nc2ccc(Cc3cc(C(F)(F)F)ccn3)cn2)CCC1=O is at least 7.
Result: class 0

Problem: Exam item: decide whether the reported pIC50 for Cn1nc(C(=O)Nc2ccc(CCOc3cccc(F)c3)cn2)ccc1=O is at least 7.
Result: class 0

Problem: Exam item: decide whether the reported pIC50 for CN1N=C(C(=O)Nc2ncc(Cc3cccc(C#N)c3)s2)CCC1=O is at least 7.
Result: class 0

Problem: Exam item: decide whether the reported pIC50 for CN1N=C(C(=O)Nc2ccc(Oc3ccc(Cl)cc3)cc2)CCC1=O is at least 7.
Result: class 0

Problem: Exam item: decide whether the reported pIC50 for Cn1nc(C(=O)Nc2ccc(Cc3cccc(F)c3)cn2)cc1CO is at least 7.
Result: class 1

Problem: Exam item: decide whether the reported pIC50 for O=C(Nc1ccc(Cc2cccc(F)c2)cn1)c1ncc(CO)cn1 is at least 7.
Result: class 0

Problem: Exam item: decide whether the reported pIC50 for N#Cc1ccc(C(=O)Nc2ccc(Cc3cc(F)ccc3F)cn2)cn1 is at least 7.
Result: class 0

Problem: Exam item: decide whether the reported pIC50 for Cc1cc(NC(=O)C2=NN(C)C(=O)CC2)ncc1Cc1cccc(Cl)c1 is at least 7.
Result: class 0

Problem: Exam item: decide whether the reported pIC50 for Cn1nc(C(=O)Nc2ccc(Cc3cccc(C(F)F)c3)cn2)ccc1=O is at least 7.
Result: class 0

Problem: Exam item: decide whether the reported pIC50 for O=C(Nc1ccc2nncn2c1)c1ccc(Cc2cccc(Cl)c2)cn1 is at least 7.
Result: class 1

----------
assayed system: human SCD1 (Homo sapiens)
Construct: expressed in transfected cells; host or cells: yeast strain with OLE1 deleted, plasmid-borne human SCD1 (selected in SD-Ura)
assay overview: Growth inhibition of yeast strain expressing human SCD1 as sole desaturase (OLE1 deleted), OD600 readout
Assay type: cell-based
study conditions: yeast strain expressing human SCD1 as sole desaturase; growth (OD600) after 40 h at 30° C.; read-out: SCD1 IC50
reported metric: pIC50
Scale: negative log10 of molar concentration, which is what pIC50 denotes.

Problem: Fill blank: measured pIC50 of the molecule O=C(Nc1ccc2nncn2c1)c1ccc(Cc2cccc(Cl)c2)cn1 [Compound 150, trifluoroacetic Acid] is ____.
Result: 7.70

Problem: Fill blank: measured pIC50 of the molecule N#Cc1ncc(C(=O)Nc2ccc(Cc3cc(F)cc(F)c3)cn2)cc1Cl [Compound 608] is ____.
Result: 6.04

Problem: Fill blank: measured pIC50 of the molecule Cn1nc(C(=O)Nc2ccc(COc3cc(F)cc(F)c3)cn2)ccc1=O [Compound 658] is ____.
Result: 5.80

Problem: Fill blank: measured pIC50 of the molecule Cn1nc(C(=O)Nc2nc(Cl)c(Cc3cccc(F)c3)s2)ccc1=O [Compound 232] is ____.
Result: 6.85
